# Test system: EPHB1 kinase domain
# Assay Notes: pTyr-Var library bacterial peptide display kinase screen (enrichment scores);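 further: log2 fold change in enrichment of variant over reference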
# Assay type: biochemical, human
# Condition Context: sheet EPHB1; effect of the variant peptide relative to its reference peptide in the pTyr-Var library screen (enrichment scores)

>  <Query Sequence>
QPSALYEDRFL [ASS1_Y83_S79P_YF]

>  <Test System>
EPHB1 kinase domain

>  <Screen>
-0.4777

$$$$
>  <Query Sequence>
VDTGVYAVPPP [BCAR1_Y410_S407T]

>  <Test System>
EPHB1 kinase domain

>  <Screen>
0.1474

$$$$
>  <Query Sequence>
HNMPIYEGFAL [ACTA1_Y168_V165M_YF]

>  <Test System>
EPHB1 kinase domain

>  <Screen>
0.09959

$$$$
>  <Query Sequence>
DGPVNYEEFVQ [CALM2_Y139_Q136P]

>  <Test System>
EPHB1 kinase domain

>  <Screen>
-0.2324

$$$$
>  <Query Sequence>
LKDEDYLKDTV [HAUS3_Y582_I586T]

>  <Test System>
EPHB1 kinase domain

>  <Screen>
0.8437

$$$$
>  <Query Sequence>
RQSTLYSFFPT [MSH6_Y8_K13T]

>  <Test System>
EPHB1 kinase domain

>  <Screen>
-0.1515

$$$$
>  <Query Sequence>
LNGDRYFKGIV [DCX_Y64_R59L]

>  <Test System>
EPHB1 kinase domain

>  <Screen>
2.112

$$$$
>  <Query Sequence>
LFMGDYVGRGF [PPP2CA_Y86_D88G_YF]

>  <Test System>
EPHB1 kinase domain

>  <Screen>
1.681

$$$$
>  <Query Sequence>
EELLRYAIVTP [POC5_Y37_H36R]

>  <Test System>
EPHB1 kinase domain

>  <Screen>
-2.287

$$$$
>  <Query Sequence>
SEHLIYLEFKS [RASGRP1_Y215_T214I]

>  <Test System>
EPHB1 kinase domain

>  <Screen>
0.7598

$$$$
>  <Query Sequence>
NKFTTYLPWLP [C9orf24_Y126_R129W_YF]

>  <Test System>
EPHB1 kinase domain

>  <Screen>
3.061

$$$$
>  <Query Sequence>
HEEDNYIEMIP [NWD2_Y566_L569M]

>  <Test System>
EPHB1 kinase domain

>  <Screen>
-0.841

$$$$
>  <Query Sequence>
QNTVDYFDLFG [PTPN11_Y62_G60V_YF]

>  <Test System>
EPHB1 kinase domain

>  <Screen>
-3.39

$$$$
>  <Query Sequence>
LDLPGYCLLRE [CCDC116_Y291_P293L]

>  <Test System>
EPHB1 kinase domain

>  <Screen>
0.4195

$$$$
>  <Query Sequence>
ENGPFYASFPP [GDAP2_Y488_T489A_YF]

>  <Test System>
EPHB1 kinase domain

>  <Screen>
1.693

$$$$
>  <Query Sequence>
LTTEAYEWEPC [ELMOD3_Y61_R66C]

>  <Test System>
EPHB1 kinase domain

>  <Screen>
1.595

$$$$
>  <Query Sequence>
INPIIYAFVVE [CCR5_Y297_G301V]

>  <Test System>
EPHB1 kinase domain

>  <Screen>
-1.262

$$$$
>  <Query Sequence>
KSFDMYSGDVM [FAM3D_Y122_A118S]

>  <Test System>
EPHB1 kinase domain

>  <Screen>
0.345

$$$$
>  <Query Sequence>
NHQFDYTFHWT [CSNK1A1_Y294_D297H_YF]

>  <Test System>
EPHB1 kinase domain

>  <Screen>
1.13

$$$$
>  <Query Sequence>
NVVQEYERVII [NPHS2_Y131_K126N]

>  <Test System>
EPHB1 kinase domain

>  <Screen>
-0.6061

$$$$
>  <Query Sequence>
ADAGMYGVLPW [PLP1_Y207_R205G]

>  <Test System>
EPHB1 kinase domain

>  <Screen>
0.87

$$$$
>  <Query Sequence>
PFTRNYFVWAV [CYBA_Y87_R90W_YF]

>  <Test System>
EPHB1 kinase domain

>  <Screen>
3.209

$$$$
>  <Query Sequence>
NNHGNYIVHLG [ETFDH_Y172_R175H]

>  <Test System>
EPHB1 kinase domain

>  <Screen>
2.943

$$$$
>  <Query Sequence>
QTPVLYTMLDH [MPZ_Y220_A221T]

>  <Test System>
EPHB1 kinase domain

>  <Screen>
-1.287

$$$$
>  <Query Sequence>
FRSSLYSLMET [MYO5C_Y633_L634S]

>  <Test System>
EPHB1 kinase domain

>  <Screen>
2.366

$$$$
>  <Query Sequence>
HNVPIYEGFGL [ACTA1_Y168_A172G_YF]

>  <Test System>
EPHB1 kinase domain

>  <Screen>
0.1073

$$$$
>  <Query Sequence>
HLVLNYGVCFC [JAK2_Y613_V617F]

>  <Test System>
EPHB1 kinase domain

>  <Screen>
0.008865

$$$$
>  <Query Sequence>
KQQEIYQEVTQ [CD209_Y239_L242V]

>  <Test System>
EPHB1 kinase domain

>  <Screen>
0.2667

$$$$
>  <Query Sequence>
HKNNNYEPSLF [BRCA2_Y57_N60S]

>  <Test System>
EPHB1 kinase domain

>  <Screen>
-1.049

$$$$
>  <Query Sequence>
QDEHGYISLCF [HSPB1_Y133_R136L]

>  <Test System>
EPHB1 kinase domain

>  <Screen>
1.02

$$$$
